This listing pairs molecules with measured Efficacy.
ASSAYED_TARGET: Progesterone receptor (Homo sapiens)
Sequence (whole entry): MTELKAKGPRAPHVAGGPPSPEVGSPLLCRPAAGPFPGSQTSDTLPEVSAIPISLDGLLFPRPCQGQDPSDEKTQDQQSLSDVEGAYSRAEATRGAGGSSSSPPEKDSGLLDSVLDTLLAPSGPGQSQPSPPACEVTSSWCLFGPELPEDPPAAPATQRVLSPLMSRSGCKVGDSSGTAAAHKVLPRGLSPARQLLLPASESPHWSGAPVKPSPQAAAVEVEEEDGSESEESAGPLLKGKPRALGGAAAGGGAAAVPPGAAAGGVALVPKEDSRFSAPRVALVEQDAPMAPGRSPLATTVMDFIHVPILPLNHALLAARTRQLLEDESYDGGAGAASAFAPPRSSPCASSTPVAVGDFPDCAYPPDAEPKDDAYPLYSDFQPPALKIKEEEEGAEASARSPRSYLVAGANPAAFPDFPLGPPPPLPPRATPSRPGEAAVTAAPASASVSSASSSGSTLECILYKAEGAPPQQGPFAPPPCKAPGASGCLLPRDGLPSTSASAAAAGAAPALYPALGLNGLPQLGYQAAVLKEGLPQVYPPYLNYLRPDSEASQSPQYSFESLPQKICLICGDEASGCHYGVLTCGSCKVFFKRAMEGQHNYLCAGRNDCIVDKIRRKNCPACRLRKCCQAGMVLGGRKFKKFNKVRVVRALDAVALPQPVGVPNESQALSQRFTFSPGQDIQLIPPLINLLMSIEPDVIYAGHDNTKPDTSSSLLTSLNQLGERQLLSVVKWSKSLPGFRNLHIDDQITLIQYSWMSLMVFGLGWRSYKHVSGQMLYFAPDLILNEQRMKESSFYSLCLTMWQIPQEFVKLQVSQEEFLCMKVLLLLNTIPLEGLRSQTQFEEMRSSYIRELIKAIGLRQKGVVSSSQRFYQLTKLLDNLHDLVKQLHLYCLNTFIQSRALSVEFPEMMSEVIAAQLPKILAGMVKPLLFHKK
ASSAY_COMMENT: In vitro antagonistic activity against human progesterone receptor (hPR)
Assay type: functional
Numbers only here, please. The scale is %.

| MOLECULE | READOUT_NAME | MEASURED |
| --- | --- | --- |
| CCC1Nc2cc3oc(=O)cc(C(F)(F)F)c3cc2CC1C (stereo not given) | Efficacy | 88 |
| CC1CCNc2cc3oc(=O)cc(C(F)(F)F)c3cc21 (stereo not given) | Efficacy | 83 |
| CC[C@@H]1CNc2cc3oc(=O)cc(C(F)(F)F)c3cc2[C@H]1CC (stereo in doubt) | Efficacy | 98 |
| O=c1cc(C(F)(F)F)c2cc3c(cc2o1)NCCC3C(F)(F)F (stereo not given) | Efficacy | 68 |
| CC[C@H]1c2cc3c(C(F)(F)F)cc(=O)oc3cc2NC[C@H]1C (relative stereo) | Efficacy | 87 |
| CC[C@@H]1c2cc3c(C(F)(F)F)cc(=O)oc3cc2NC[C@H]1C (relative stereo) | Efficacy | 98 |

Find the measured Efficacy of CC1=CC(C)(C)Nc2cc3oc(=O)cc(C(F)(F)F)c3cc21 and report it.
79

Find the measured Efficacy of CC1(C)CCc2cc3c(C(F)(F)F)cc(=O)oc3cc2N1 and report it.
84

Find the measured Efficacy of CCCC1CCNc2cc3oc(=O)cc(C(F)(F)F)c3cc21 (stereo not given) and report it.
89

Find the measured Efficacy of CCC1CCNc2cc3oc(=O)cc(C(F)(F)F)c3cc21 (stereo not given) and report it.
91

----------
ASSAYED_TARGET: UniProt:P10275
Sequence (P10275 whole entry): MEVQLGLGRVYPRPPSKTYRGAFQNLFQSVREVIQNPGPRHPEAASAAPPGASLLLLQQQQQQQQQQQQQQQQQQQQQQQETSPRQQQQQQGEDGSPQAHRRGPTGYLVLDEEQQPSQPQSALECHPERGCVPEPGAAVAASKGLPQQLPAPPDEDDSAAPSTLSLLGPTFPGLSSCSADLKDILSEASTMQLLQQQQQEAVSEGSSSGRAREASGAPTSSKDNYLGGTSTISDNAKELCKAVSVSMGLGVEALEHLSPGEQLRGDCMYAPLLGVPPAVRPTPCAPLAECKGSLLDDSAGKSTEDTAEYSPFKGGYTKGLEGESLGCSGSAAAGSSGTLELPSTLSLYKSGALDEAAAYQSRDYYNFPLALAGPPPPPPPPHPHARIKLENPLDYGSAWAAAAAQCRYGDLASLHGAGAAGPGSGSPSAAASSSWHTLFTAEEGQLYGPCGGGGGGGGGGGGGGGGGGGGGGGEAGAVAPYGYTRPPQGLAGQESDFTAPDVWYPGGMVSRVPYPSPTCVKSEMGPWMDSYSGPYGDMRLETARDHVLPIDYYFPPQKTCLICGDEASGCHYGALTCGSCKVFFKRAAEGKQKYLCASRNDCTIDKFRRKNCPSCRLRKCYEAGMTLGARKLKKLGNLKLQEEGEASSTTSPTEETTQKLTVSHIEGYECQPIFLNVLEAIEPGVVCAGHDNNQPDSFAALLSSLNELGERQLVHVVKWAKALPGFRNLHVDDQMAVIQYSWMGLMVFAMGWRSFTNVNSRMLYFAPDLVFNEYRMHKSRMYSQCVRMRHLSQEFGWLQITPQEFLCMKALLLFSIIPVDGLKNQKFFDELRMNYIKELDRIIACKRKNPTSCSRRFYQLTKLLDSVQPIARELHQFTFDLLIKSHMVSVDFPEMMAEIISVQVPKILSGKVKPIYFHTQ
ASSAY_COMMENT: biochemical
Description: In vitro binding affinity at human androgen receptor transfected into COS cells.
READOUT_NAME: pIC50
Notebook: values listed as pIC50 are -log10 of the concentration (mol/L).

| MOLECULE | ASSAYED_TARGET | pIC50 |
| --- | --- | --- |
| CCC1Nc2cc3oc(=O)cc(C(F)(F)F)c3cc2CC1C (stereo not given) | UniProt:P10275 | 8.15 |
| CCC1CCNc2cc3oc(=O)cc(C(F)(F)F)c3cc21 (stereo not given) | UniProt:P10275 | 9.00 |
| CCC1CC(C)c2cc3c(C(F)(F)F)cc(=O)oc3cc2N1 (cis isomer) | UniProt:P10275 | 7.96 |
| O=c1cc(C(F)(F)F)c2cc3c(cc2o1)NCCC3 | UniProt:P10275 | 9.00 |

Turning to the following molecule.
Tell me its pIC50 on UniProt:P10275: O=c1cc(C(F)(F)F)c2cc3c(cc2o1)NCCC3C(F)(F)F (stereo not given)
8.70

----------
ASSAYED_TARGET: Glucocorticoid receptor (Homo sapiens)
ASSAY_COMMENT: In vitro antagonistic activity against human glucocorticoid receptor (hGR)
Type: functional
This listing pairs molecules with measured pIC50.
Notebook: values listed as pIC50 are -log10 of the concentration (mol/L).

| MOLECULE | ASSAYED_TARGET | READOUT_NAME | MEASURED |
| --- | --- | --- | --- |
| CC[C@H]1c2cc3c(C(F)(F)F)cc(=O)oc3cc2NC[C@H]1C (relative stereo) | Glucocorticoid receptor (Homo sapiens) | pIC50 | 6.47 |
| CC[C@@H]1c2cc3c(C(F)(F)F)cc(=O)oc3cc2NC[C@H]1C (relative stereo) | Glucocorticoid receptor (Homo sapiens) | pIC50 | 5.64 |

Turning to the following molecule.
Find the measured pIC50 of CC[C@@H]1CNc2cc3oc(=O)cc(C(F)(F)F)c3cc2[C@H]1CC (stereo in doubt) and report it.
5.55

----------
ASSAYED_TARGET: Androgen receptor (Homo sapiens, UniProt P10275)
Sequence (P10275 whole entry): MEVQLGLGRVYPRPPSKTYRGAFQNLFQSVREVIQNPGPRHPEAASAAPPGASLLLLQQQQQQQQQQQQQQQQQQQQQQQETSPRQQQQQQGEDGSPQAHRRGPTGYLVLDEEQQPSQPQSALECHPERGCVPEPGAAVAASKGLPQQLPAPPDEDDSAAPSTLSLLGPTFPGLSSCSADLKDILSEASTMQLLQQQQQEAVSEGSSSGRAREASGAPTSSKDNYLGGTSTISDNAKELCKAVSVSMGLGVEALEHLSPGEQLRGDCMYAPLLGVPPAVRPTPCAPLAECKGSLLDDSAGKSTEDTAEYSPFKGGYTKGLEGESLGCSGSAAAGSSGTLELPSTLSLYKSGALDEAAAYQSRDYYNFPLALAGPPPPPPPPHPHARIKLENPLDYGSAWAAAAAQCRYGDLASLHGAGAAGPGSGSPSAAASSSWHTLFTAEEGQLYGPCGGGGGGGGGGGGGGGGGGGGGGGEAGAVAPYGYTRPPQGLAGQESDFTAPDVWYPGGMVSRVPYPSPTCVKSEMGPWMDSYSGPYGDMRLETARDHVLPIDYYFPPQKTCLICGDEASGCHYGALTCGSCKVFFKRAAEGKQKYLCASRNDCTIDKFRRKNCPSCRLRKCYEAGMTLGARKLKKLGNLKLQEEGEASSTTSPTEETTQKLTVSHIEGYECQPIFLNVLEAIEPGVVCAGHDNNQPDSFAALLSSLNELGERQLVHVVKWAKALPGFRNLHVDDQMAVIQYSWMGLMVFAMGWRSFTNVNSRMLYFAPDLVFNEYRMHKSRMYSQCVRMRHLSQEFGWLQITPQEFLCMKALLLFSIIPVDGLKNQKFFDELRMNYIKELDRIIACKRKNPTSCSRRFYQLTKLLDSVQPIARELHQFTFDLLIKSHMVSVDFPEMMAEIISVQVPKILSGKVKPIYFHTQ
READOUT_NAME: EC50 (nM)
Numbers only here, please. The scale is nM.

| MOLECULE | QUANTITY_UNIT | EC50 |
| --- | --- | --- |
| CC[C@@H]1CNc2cc3oc(=O)cc(C(F)(F)F)c3cc2[C@H]1CC (stereo in doubt) | nM | 1400 |

Turning to the following molecule.
Find the measured EC50 of CC[C@H]1C[C@@H](C)Nc2cc3oc(=O)cc(C(F)(F)F)c3cc21 (relative stereo) and report it.
16
